meta.source: paper PMC10400562

assay: SPR; KP from the fits; details: DMPC bilayer on SPR chip; buffer
Non-standard residues stand in square brackets, D forms with d. Residues, ends and D or L forms follow the SMILES beside them.
The compounds listed here are annotated with their membrane partition coefficient KP (KP x 10^3).

| COMPOUND | RESULT |
| --- | --- |
| N=C(N)NCCC[C@@H]1NC(=O)[C@H](Cc2c[nH]c3ccccc23)NC(=O)[C@H](CCCNC(=N)N)NC(=O)[C@H](Cc2c[nH]c3ccccc23)NC(=O)[C@H](CCCNC(=N)N)NC(=O)[C@H](Cc2c[nH]c3ccccc23)NC1=O [compound 2] (cyclo(WRWRWR)) | 1.30 ± 0.09 x10^3 |
| CC(C)C[C@@H]1NC(=O)[C@@H](CCCNC(=N)N)NC(=O)[C@H](CCCCN)NC(=O)[C@H](CC(N)=O)NC(=O)[C@@H](Cc2c[nH]c3ccccc23)NC(=O)[C@H](Cc2c[nH]c3ccccc23)NC1=O [compound 5] (cyclo(LW[dW]NK[dR])) | 0.28 ± 0.01 x10^3 |
| NCCCC[C@@H]1NC(=O)[C@H](Cc2c[nH]c3ccccc23)NC(=O)[C@H](CCCCN)NC(=O)[C@H](Cc2c[nH]c3ccccc23)NC(=O)[C@H](CCCCN)NC(=O)[C@H](Cc2c[nH]c3ccccc23)NC1=O [compound 4] (cyclo(WKWKWK)) | 0.53 ± 0.01 x10^3 |
| N=C(N)NCCC[C@@H]1NC(=O)[C@H](CCCNC(=N)N)NC(=O)[C@H](Cc2c[nH]c3ccccc23)NC(=O)[C@H](Cc2c[nH]c3ccccc23)NC(=O)[C@H](Cc2c[nH]c3ccccc23)NC(=O)[C@H](CCCNC(=N)N)NC1=O [compound 1] (cyclo(WWWRRR)) | 6.65 ± 0.80 x10^3 |

Let us move to another entry and its membrane partition coefficient KP (KP x 10^3).
Field request: membrane partition coefficient KP (KP x 10^3) | item: NCCCC[C@@H]1NC(=O)[C@H](CCCCN)NC(=O)[C@H](Cc2c[nH]c3ccccc23)NC(=O)[C@H](Cc2c[nH]c3ccccc23)NC(=O)[C@H](Cc2c[nH]c3ccccc23)NC(=O)[C@H](CCCCN)NC1=O [compound 3] (cyclo(WWWKKK)) 2.53 ± 0.08 x10^3
